target: Glucagon receptor (Homo sapiens); assay: Binding affinity to human cloned GluR expressed in BHK cells
Sequence (P47871 whole entry): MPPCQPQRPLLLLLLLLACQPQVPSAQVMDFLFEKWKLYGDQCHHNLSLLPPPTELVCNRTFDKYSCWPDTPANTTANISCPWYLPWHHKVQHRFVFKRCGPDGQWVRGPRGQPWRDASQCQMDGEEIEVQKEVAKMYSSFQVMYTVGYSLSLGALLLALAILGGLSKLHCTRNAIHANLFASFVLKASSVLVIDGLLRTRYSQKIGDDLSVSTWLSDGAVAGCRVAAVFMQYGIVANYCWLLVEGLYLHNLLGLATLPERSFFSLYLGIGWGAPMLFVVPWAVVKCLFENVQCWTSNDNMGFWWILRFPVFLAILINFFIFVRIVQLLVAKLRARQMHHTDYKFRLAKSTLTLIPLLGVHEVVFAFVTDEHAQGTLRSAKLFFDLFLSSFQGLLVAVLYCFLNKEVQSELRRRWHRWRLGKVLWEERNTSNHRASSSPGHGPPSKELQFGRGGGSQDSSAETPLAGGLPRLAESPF
Quantity Name: pIC50
Keep in mind that pIC50 stands for -log10 of concentration in molar terms.

[
  {
    "Molecule": "CC(C)(C)[C@H]1CC[C@H](N(Cc2ccc(C(=O)NC[C@H](O)C(=O)O)cc2)C(=O)Nc2cc(C(F)(F)F)cc(C(F)(F)F)c2)CC1",
    "Quantity Name": "pIC50",
    "Meas Value": 7.09
  },
  {
    "Molecule": "O=C(NC[C@@H](O)C(=O)O)c1ccc(CN(C(=O)Nc2cc(Br)cc(C(F)(F)F)c2)c2ccc(C3=CCCCC3)cc2)cc1",
    "Quantity Name": "pIC50",
    "Meas Value": 8.15
  },
  {
    "Molecule": "O=C(NC[C@@H](O)C(=O)O)c1ccc(CN(C(=O)Nc2ccc(SC(F)(F)F)cc2)c2ccc(C3CCCCC3)cc2)cc1",
    "Quantity Name": "pIC50",
    "Meas Value": 8.22
  },
  {
    "Molecule": "O=C(NCC(O)C(=O)O)c1ccc(CN(C(=O)Nc2cc(Cl)cc(Cl)c2)c2ccc(C3=CCCCC3)cc2)cc1 (racemic)",
    "Quantity Name": "pIC50",
    "Meas Value": 7.85
  },
  {
    "Molecule": "O=C(NC[C@@H](O)C(=O)O)c1ccc(CN(C(=O)Nc2ccc3c(c2)C(F)(F)OC(F)(F)O3)c2ccc(C3=CCCCC3)cc2)cc1",
    "Quantity Name": "pIC50",
    "Meas Value": 8.22
  },
  {
    "Molecule": "CO[C@H](CNC(=O)c1ccc(CN(C(=O)Nc2cc(Cl)cc(Cl)c2)c2ccc(C3=CCCCC3)cc2)cc1)C(=O)O",
    "Quantity Name": "pIC50",
    "Meas Value": 6.16
  },
  {
    "Molecule": "Cc1cc(NC(=O)N(Cc2ccc(C(=O)NC[C@@H](O)C(=O)O)cc2)[C@H]2CC[C@H](C(C)(C)C)CC2)cc(C(F)(F)F)c1",
    "Quantity Name": "pIC50",
    "Meas Value": 8.00
  },
  {
    "Molecule": "N#Cc1ccc(NC(=O)N(Cc2ccc(C(=O)NC[C@@H](O)C(=O)O)cc2)c2ccc(C3CCCCC3)cc2)cc1C(F)(F)F",
    "Quantity Name": "pIC50",
    "Meas Value": 8.05
  },
  {
    "Molecule": "CC(C)(C)[C@H]1CC[C@H](N(Cc2ccc(C(=O)NCCC(=O)O)cc2)C(=O)Nc2cc(C(F)(F)F)cc(C(F)(F)F)c2)CC1",
    "Quantity Name": "pIC50",
    "Meas Value": 7.80
  },
  {
    "Molecule": "O=C(NC[C@@H](O)C(=O)O)c1ccc(CN(C(=O)Nc2cccc(Br)c2)c2ccc(C3CCCCC3)cc2)cc1",
    "Quantity Name": "pIC50",
    "Meas Value": 8.10
  }
]

[Q] Report pIC50 for `O=C(NC[C@@H](O)C(=O)O)c1ccc(CN(C(=O)Nc2cc(Cl)cc(Cl)c2)c2ccc(C3=CCCCC3)cc2)cc1` please.
[A] 8.41

[Q] Report pIC50 for CC(C)(C)C1CCC(N(Cc2ccc(C(=O)NCCC(=O)O)cc2)C(=O)Nc2ccc(OC(F)(F)F)cc2)CC1 (centres undefined) please.
[A] 7.63

[Q] Report pIC50 for `COc1cc(NC(=O)N(Cc2ccc(C(=O)NC[C@@H](O)C(=O)O)cc2)c2ccc(C3CCCCC3)cc2)cc(C(F)(F)F)c1` please.
[A] 8.05

[Q] Report pIC50 for `CC(C)(C)[C@H]1CC[C@H](N(Cc2ccc(C(=O)NC[C@@H](O)C(=O)O)cc2)C(=O)Nc2cc(C(F)(F)F)cc(C(F)(F)F)c2)CC1` please.
[A] 8.10
